# target-or-test-system: Progesterone receptor (Homo sapiens)
# assay-details: qHTS assay to identify small molecule antagonists of the progesterone receptor (PR) signaling pathway (AID 1346795)
# applied-conditions: PR-UAS-bla HEK293T, beta-lactamase FRET ratio, 16 h; series mostly up to 92.4 µM
Inconclusive results are not listed. The source made the active and inactive calls. Calls follow the shape of the dose curve; as a rule, active = well fitted inhibition curve with a large enough effect in the signal ratio in the repeat runs (not every such curve was filed as active); inconclusive = weak or mixed curves; inactive = flat fitted curve, though single readings scatter; the % refers to the signal ratio.
Possible outcomes: True (active), False (inactive)

[
  {
    "compound": "O=C(C(=O)c1ccccc1)c1ccccc1",
    "assigned-class": "False"
  },
  {
    "compound": "Cc1nc2ccccn2c(=O)c1CCN1CCC(C(=O)c2ccc(F)cc2)CC1",
    "assigned-class": "False"
  },
  {
    "compound": "CCCCCCCCCCOS(=O)(=O)O",
    "assigned-class": "False"
  },
  {
    "compound": "O=C1OCCN1/N=C/c1ccc([N+](=O)[O-])o1",
    "assigned-class": "False"
  },
  {
    "compound": "c1ccc(COCc2ccccc2)cc1",
    "assigned-class": "False"
  },
  {
    "compound": "CCCCCCCCCCCC[N+](C)(C)CCCS(=O)(=O)[O-]",
    "assigned-class": "False"
  },
  {
    "compound": "O=C(CCC1CCN(Cc2ccccc2)CC1)c1ccc2c(c1)NCCCC2",
    "assigned-class": "False"
  },
  {
    "compound": "COc1cc2ncnc(Nc3ccc(F)c(Cl)c3)c2cc1OCCCN1CCOCC1",
    "assigned-class": "True"
  },
  {
    "compound": "CCCCC(=O)O[C@]1(C(=O)CO)[C@@H](C)C[C@H]2[C@@H]3CCC4=CC(=O)C=C[C@]4(C)[C@@]3(F)[C@@H](O)C[C@@]21C",
    "assigned-class": "False"
  },
  {
    "compound": "CCOC(=O)c1ccccc1OC",
    "assigned-class": "False"
  },
  {
    "compound": "CC(CCc1ccc2c(c1)OCO2)NN (centres undefined)",
    "assigned-class": "False"
  },
  {
    "compound": "CCCCCCOC(=O)C(C)C",
    "assigned-class": "False"
  },
  {
    "compound": "CC(CCO)CCc1ccccc1 (centres undefined)",
    "assigned-class": "False"
  },
  {
    "compound": "Cc1ccc(S)cc1",
    "assigned-class": "False"
  },
  {
    "compound": "CC(=O)N(c1onc(C)c1C)S(=O)(=O)c1ccc(N)cc1",
    "assigned-class": "False"
  },
  {
    "compound": "CCCCC(CC)C(=O)OCCOCCOCCOCCOC(=O)C(CC)CCCC (centres undefined)",
    "assigned-class": "False"
  },
  {
    "compound": "COCCOC",
    "assigned-class": "False"
  },
  {
    "compound": "CC(=O)[C@H]1CC[C@H]2[C@@H]3C=CC4=CC(=O)CC[C@@]4(C)[C@@H]3CC[C@]12C",
    "assigned-class": "False"
  },
  {
    "compound": "CCCCOC(=O)CCS",
    "assigned-class": "False"
  }
]
